test_target: JAK3 (Homo sapiens, UniProt P52333)
Construct: 5 μl of catalytic domain recombinant Kinase enzyme+Tyr peptide substrate (Invitrogen, CA)
Sequence (P52333 822-1111 limits assumed): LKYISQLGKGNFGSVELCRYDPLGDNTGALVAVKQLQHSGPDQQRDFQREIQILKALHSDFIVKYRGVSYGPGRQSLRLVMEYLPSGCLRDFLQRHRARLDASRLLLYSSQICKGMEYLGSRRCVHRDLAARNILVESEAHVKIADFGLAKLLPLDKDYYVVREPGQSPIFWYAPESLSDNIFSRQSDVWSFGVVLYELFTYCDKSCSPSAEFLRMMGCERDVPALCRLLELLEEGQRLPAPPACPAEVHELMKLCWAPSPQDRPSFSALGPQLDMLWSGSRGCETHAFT
measurement_description: Z'-LYTE kinase assay JAK3
pIC50: −log10 of the molar value.
The following compounds are shown together with reported pIC50 values.
measurement_label: pIC50

In [3]: df
Out[3]:
                                  mol_smiles                          test_target  measurement_label        result
 0  COc1ccc(Nc2cc(NCc3cccc(F)n3)c(C(N)=O)cn2)cc1  JAK3 (Homo sapiens, UniProt P52333)              pIC50  7.00 to 8.00
 1  CCC(=O)N1CCC(c2ccc(Nc3cc(NCc4nccs4)c(C(N)=O)cn3)cc2)CC1  JAK3 (Homo sapiens, UniProt P52333)              pIC50  7.00 to 8.00
 2  CCC(=O)N1CCC(c2ccc(Nc3cc(NCc4cc(F)ccc4F)c(C(N)=O)cn3)cc2)CC1  JAK3 (Homo sapiens, UniProt P52333)              pIC50  8.00 to 9.00
 3  NC(=O)c1cnc(Nc2ccc(-c3c[nH]cn3)cc2)cc1NCc1ccccc1  JAK3 (Homo sapiens, UniProt P52333)              pIC50  7.00 to 8.00
 4  C[C@@H](Nc1cc(Nc2ccc(C3CCOCC3)cc2)ncc1C(N)=O)C(C)(C)C  JAK3 (Homo sapiens, UniProt P52333)              pIC50  7.00 to 8.00
 5  CS(=O)(=O)Cc1ccc(Nc2cc(NCc3cccc4ccsc34)c(C(N)=O)cn2)cc1  JAK3 (Homo sapiens, UniProt P52333)              pIC50        > 9.00
 6  NC(=O)c1cnc(Nc2ccc(C3CCOCC3)cc2)cc1NCC1CC1  JAK3 (Homo sapiens, UniProt P52333)              pIC50  6.00 to 7.00
 7  COC(=O)N(C)c1ccc(Nc2cc(NCc3cccc(F)n3)c(C(N)=O)cn2)cc1  JAK3 (Homo sapiens, UniProt P52333)              pIC50  7.00 to 8.00
 8  CN(C)C(=O)c1ccc(Nc2cc(NCC3CCCC3)c(C(N)=O)cn2)cc1  JAK3 (Homo sapiens, UniProt P52333)              pIC50  7.00 to 8.00
 9  COC[C@@H](Nc1cc(Nc2ccc(C(=O)N(C)C)cc2)ncc1C(N)=O)c1ccccc1  JAK3 (Homo sapiens, UniProt P52333)              pIC50  7.00 to 8.00
10  CN(C)C(=O)c1ccc(Nc2cc(NCc3cccc(S(C)(=O)=O)c3)c(C(N)=O)cn2)cc1  JAK3 (Homo sapiens, UniProt P52333)              pIC50  7.00 to 8.00
11  NC(=O)c1cnc(Nc2ccc(C3CCNCC3)cc2)cc1NCc1cccc(F)c1  JAK3 (Homo sapiens, UniProt P52333)              pIC50  8.00 to 9.00
12  CC(=O)N1CCC(c2ccc(Nc3cc(NCc4ccccc4F)c(C(N)=O)cn3)cc2)CC1  JAK3 (Homo sapiens, UniProt P52333)              pIC50  7.00 to 8.00
13  CCC(=O)N(C)c1ccc(Nc2cc(NCc3cccc4cc[nH]c34)c(C(N)=O)cn2)cc1  JAK3 (Homo sapiens, UniProt P52333)              pIC50  7.00 to 8.00
14  NC(=O)c1cnc(Nc2cccc(OCCN3CCCC3)c2)cc1N[C@H](CO)c1ccccc1  JAK3 (Homo sapiens, UniProt P52333)              pIC50  8.00 to 9.00
15  COc1ccc(Nc2cc(NCc3cccc4cc[nH]c34)c(C(N)=O)cn2)cc1  JAK3 (Homo sapiens, UniProt P52333)              pIC50  7.00 to 8.00
16  COc1ccc(Nc2cc(NCc3cccc4c3ccn4C)c(C(N)=O)cn2)cc1  JAK3 (Homo sapiens, UniProt P52333)              pIC50  7.00 to 8.00
17  COc1ccc(Nc2cc(NCc3cccc4[nH]ccc34)c(C(N)=O)cn2)cc1  JAK3 (Homo sapiens, UniProt P52333)              pIC50  8.00 to 9.00
18  CCC(=O)N1CCC(c2ccc(Nc3cc(NCc4ncccn4)c(C(N)=O)cn3)cc2)CC1  JAK3 (Homo sapiens, UniProt P52333)              pIC50  6.00 to 7.00
19  COc1cc(Nc2cc(NC[C@H]3CCCN(C(C)=O)C3)c(C(N)=O)cn2)ccc1C(=O)N(C)C  JAK3 (Homo sapiens, UniProt P52333)              pIC50  7.00 to 8.00
20  CN(C)C(=O)C1CN(c2ccc(Nc3cc(NCc4cccc5ccsc45)c(C(N)=O)cn3)cc2F)C1  JAK3 (Homo sapiens, UniProt P52333)              pIC50  8.00 to 9.00
21  NC(=O)c1cnc(Nc2ccc(C(=O)N3CCCC3)cc2)cc1NCc1ccccc1  JAK3 (Homo sapiens, UniProt P52333)              pIC50  8.00 to 9.00
22  COCC(=O)N1CC(c2ccc(Nc3cc(NCc4ccccc4)c(C(N)=O)cn3)cc2)C1  JAK3 (Homo sapiens, UniProt P52333)              pIC50  8.00 to 9.00
23  CCC(=O)N1CCC(c2ccc(Nc3cc(N[C@H](C)C(C)C)c(C(N)=O)cn3)cc2)CC1  JAK3 (Homo sapiens, UniProt P52333)              pIC50  8.00 to 9.00
24  NC(=O)c1cnc(Nc2cccc(OCC(=O)N3CCOCC3)c2)cc1NC1(c2ccccc2)CC1  JAK3 (Homo sapiens, UniProt P52333)              pIC50  7.00 to 8.00
25  CC(=O)N1CCN(c2ccc(Nc3cc(NCc4cccs4)c(C(N)=O)cn3)cc2)CC1  JAK3 (Homo sapiens, UniProt P52333)              pIC50  8.00 to 9.00
26  NC(=O)c1cnc(Nc2ccc(CN3CCOCC3)cc2)cc1NC1(c2ccccc2)CC1  JAK3 (Homo sapiens, UniProt P52333)              pIC50  7.00 to 8.00
27  NC(=O)c1cnc(Nc2ccc3c(c2)NC(=O)CO3)cc1NCc1ccccc1  JAK3 (Homo sapiens, UniProt P52333)              pIC50  7.00 to 8.00
28  Cc1cc(Nc2cc(NCc3cccc(F)c3F)c(C(N)=O)cn2)ccc1C(=O)N1CCOCC1  JAK3 (Homo sapiens, UniProt P52333)              pIC50  8.00 to 9.00
29  CC(=O)N1CCN(c2ccc(Nc3cc(N[C@H]4CCc5ccccc54)c(C(N)=O)cn3)cc2)CC1  JAK3 (Homo sapiens, UniProt P52333)              pIC50  7.00 to 8.00
30  CCC(=O)N1CCC(c2ccc(Nc3cc(N[C@H](C)C4CCCCC4)c(C(N)=O)cn3)cc2)CC1  JAK3 (Homo sapiens, UniProt P52333)              pIC50  6.00 to 7.00
31  COc1ccc(Nc2cc(NCc3cccc(S(C)(=O)=O)c3)c(C(N)=O)cn2)cc1  JAK3 (Homo sapiens, UniProt P52333)              pIC50  7.00 to 8.00
32  CC(=O)N1CCN(c2ccc(Nc3cc(NCc4cccnc4)c(C(N)=O)cn3)cc2)CC1  JAK3 (Homo sapiens, UniProt P52333)              pIC50  8.00 to 9.00
